assay: Toxicity against human KIF5 cells incubated for 24 hrs by CellTiter Blue cell viability assay; type: cell-based
ATTRIBUTE MEASURED: IC50 at 24 h

Ask: Look up IC50 at 24 h: CC(C)=CCc1cc(=O)cc2n(C)c3cccc(C(=O)O)c3nc1-2 [ENDOPHENAZINE B]
Reply: > 50 µM

Ask: Look up IC50 at 24 h: CC/C(=C(\c1ccccc1)c1ccc(OCCN(C)C)cc1)c1ccccc1 [TAMOXIFEN]
Reply: 23.8 µM

Ask: Look up IC50 at 24 h: Oc1cccc2nc3c(O)cccc3nc12
Reply: > 50 µM

Ask: Look up IC50 at 24 h: CC(C)=CCC/C(C)=C/Cc1ccc(O)c2nc3cccc(O)c3nc12 [GERANYLPHENAZINEDIOL]
Reply: > 50 µM

Ask: Look up IC50 at 24 h: O=C(O)c1cccc2nc3ccccc3nc12 [PHENAZINE-1-CARBOXYLIC ACID]
Reply: > 50 µM

Ask: Look up IC50 at 24 h: CC(=O)Oc1cccc2nc3c(OC(C)=O)ccc(C/C=C(\C)CCC=C(C)C)c3nc12 [DIACETYLGERANYLPHENAZINEDIOL]
Reply: > 50 µM

Ask: Look up IC50 at 24 h: CC(C)=CCc1cccc2nc3cccc(C(=O)O)c3nc12 [ENDOPHENAZINE A]
Reply: > 10 µM

Ask: Look up IC50 at 24 h: Oc1ccc2nc3ccccc3nc2c1
Reply: > 50 µM
